- targetSystem: cynomolgus IL-36R on BaF/3 cells (cynomolgus, UniProt A0A2K5WSK9 20-558)
- Sequence (A0A2K5WSK9 entry or part of it): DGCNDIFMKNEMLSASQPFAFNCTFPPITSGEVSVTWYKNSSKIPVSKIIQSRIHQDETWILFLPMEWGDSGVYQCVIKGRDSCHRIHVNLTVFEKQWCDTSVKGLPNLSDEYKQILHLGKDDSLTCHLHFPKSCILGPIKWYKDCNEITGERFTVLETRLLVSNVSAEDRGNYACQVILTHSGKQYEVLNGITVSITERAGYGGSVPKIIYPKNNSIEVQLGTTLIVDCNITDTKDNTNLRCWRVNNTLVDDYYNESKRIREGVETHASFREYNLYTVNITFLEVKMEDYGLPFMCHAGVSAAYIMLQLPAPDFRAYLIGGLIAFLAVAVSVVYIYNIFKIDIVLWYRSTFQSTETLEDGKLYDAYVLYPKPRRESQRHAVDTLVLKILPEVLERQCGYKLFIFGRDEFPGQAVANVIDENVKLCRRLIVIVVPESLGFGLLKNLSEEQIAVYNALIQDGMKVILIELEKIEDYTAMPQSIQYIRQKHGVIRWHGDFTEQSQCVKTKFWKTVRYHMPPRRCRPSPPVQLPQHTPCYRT
- procedureText: cell-based or functional assay
observedProperty: IC90, pNFκB, BaF/3 cynomolgus IL-36R cells, trun-IL-36b (nM)
Record the value in nM, omitting the unit from your answer.

antibody 81A1 (antibody, V domains shown, Mouse monoclonal from hybridoma; also called 81A1D1; Mouse 81A1) VH: QVQLKESGPGLVAPSQSLFITCTVSGFSLSSYEINWVRQVPGKGLEWLGVIWTGITTNYNSALISRLSISKDNSKSLVFLKMNSLQTDDTAIYYCARGTGTGFYYAMDYWGQGTSVTVSS VL: DIQMTQTTSSLSASLGDRVTISCRASQDIYKYLNWYQQKPDGTLKLLIYYTSGLHSGVPSRFSGSGSGTDFSLTISNLEPEDIATYFCQQDSKFPWTFGGDTKLEIK	0.9

Now look at this entry.
IC90, pNFκB, BaF/3 cynomolgus IL-36R cells, trun-IL-36b reported for this binder antibody 73F6 (antibody, V domains shown, Mouse monoclonal from hybridoma; also called 73F6F8; Mouse 73F6) VH: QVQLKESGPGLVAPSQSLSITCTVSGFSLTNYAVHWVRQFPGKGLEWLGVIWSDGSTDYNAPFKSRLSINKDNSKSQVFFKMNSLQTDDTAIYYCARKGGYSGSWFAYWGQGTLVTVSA VL: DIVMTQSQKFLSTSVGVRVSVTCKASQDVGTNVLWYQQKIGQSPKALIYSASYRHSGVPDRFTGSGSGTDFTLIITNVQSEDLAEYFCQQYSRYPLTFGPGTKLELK : 0.7
